Target: Protein kinase C beta type (Homo sapiens, UniProt P05771)
Sequence (P05771 whole entry): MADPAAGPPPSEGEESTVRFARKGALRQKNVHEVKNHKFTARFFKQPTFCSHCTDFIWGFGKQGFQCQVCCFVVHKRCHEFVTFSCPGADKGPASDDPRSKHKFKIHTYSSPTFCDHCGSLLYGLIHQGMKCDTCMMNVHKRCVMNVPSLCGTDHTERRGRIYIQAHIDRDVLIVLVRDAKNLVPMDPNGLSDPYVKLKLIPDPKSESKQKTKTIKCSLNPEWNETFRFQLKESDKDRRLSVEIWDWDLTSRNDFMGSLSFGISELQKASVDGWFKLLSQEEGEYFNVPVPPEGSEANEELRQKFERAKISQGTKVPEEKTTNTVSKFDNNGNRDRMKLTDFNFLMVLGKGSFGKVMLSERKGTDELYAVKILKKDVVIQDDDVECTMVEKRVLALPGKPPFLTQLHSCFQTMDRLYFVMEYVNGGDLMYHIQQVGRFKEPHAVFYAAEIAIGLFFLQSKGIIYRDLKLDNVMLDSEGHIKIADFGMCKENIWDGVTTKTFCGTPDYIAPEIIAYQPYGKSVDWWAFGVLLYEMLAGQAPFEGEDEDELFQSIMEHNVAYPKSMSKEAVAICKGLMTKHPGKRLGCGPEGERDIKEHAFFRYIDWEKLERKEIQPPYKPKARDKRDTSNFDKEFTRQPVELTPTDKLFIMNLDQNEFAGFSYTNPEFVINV
Assay: Inhibition of human Protein kinase C beta 1
Exam item: assign t to entries whose IC50 is below 0.04 µM and f to entries at or above 0.04 µM. Note that a value of exactly 0.04 µM receives f.

>>> discrete_label("O=C(N[C@@H]1CNCC[C@H]1OC(=O)c1cc(O)c(C(=O)c2c(O)cccc2C(=O)O)c(O)c1)c1ccc(O)cc1")
"f"
>>> discrete_label("O=C(N[C@@H]1CNC[C@H]1OC(=O)c1cc(O)c(C(=O)c2c(O)cccc2C(=O)O)c(O)c1)c1ccc(O)cc1")
"t"
>>> discrete_label("O=C(N[C@@H]1CCCCC[C@H]1OC(=O)c1cc(O)c(C(=O)c2c(O)cccc2C(=O)O)c(O)c1)c1ccc(O)cc1")
"f"
>>> discrete_label("O=C(N[C@@H]1CNCCC[C@H]1OC(=O)c1cc(O)c(C(=O)c2c(O)cccc2C(=O)O)c(O)c1)c1ccc(O)cc1 (racemic)")
"t"

====

pIC50 for assorted compounds
Target: UniProt P24723
Sequence (P24723 whole entry): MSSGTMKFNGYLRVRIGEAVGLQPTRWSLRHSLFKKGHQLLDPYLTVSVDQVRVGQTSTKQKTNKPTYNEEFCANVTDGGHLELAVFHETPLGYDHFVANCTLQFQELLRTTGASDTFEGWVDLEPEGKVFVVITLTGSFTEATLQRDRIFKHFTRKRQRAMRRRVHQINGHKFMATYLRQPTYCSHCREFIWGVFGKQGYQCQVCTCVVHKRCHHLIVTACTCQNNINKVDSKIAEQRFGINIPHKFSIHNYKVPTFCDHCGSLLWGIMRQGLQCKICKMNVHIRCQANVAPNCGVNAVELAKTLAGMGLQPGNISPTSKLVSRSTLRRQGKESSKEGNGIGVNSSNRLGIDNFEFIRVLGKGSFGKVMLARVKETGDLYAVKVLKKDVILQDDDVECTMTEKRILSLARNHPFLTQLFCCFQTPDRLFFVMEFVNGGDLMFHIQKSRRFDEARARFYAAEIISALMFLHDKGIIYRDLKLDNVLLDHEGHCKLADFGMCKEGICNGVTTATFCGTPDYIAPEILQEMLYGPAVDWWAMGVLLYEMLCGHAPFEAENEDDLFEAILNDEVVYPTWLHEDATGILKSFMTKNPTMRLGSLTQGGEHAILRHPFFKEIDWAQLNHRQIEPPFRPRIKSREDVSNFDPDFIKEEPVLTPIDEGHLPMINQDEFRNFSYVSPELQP
pIC50: −log10 of the molar value.
Measurement Label: pIC50

>>> recorded_result("O=C(N[C@@H]1CNC[C@H]1OC(=O)c1cc(O)c(C(=O)c2c(O)cccc2C(=O)O)c(O)c1)c1ccc(O)cc1")
8.40
>>> recorded_result("O=C(N[C@@H]1CNCCC[C@H]1OC(=O)c1cc(O)c(C(=O)c2c(O)cccc2C(=O)O)c(O)c1)c1ccc(O)cc1 (racemic)")
7.66
>>> recorded_result("O=C(N[C@@H]1CCCCC[C@H]1OC(=O)c1cc(O)c(C(=O)c2c(O)cccc2C(=O)O)c(O)c1)c1ccc(O)cc1")
7.22
>>> recorded_result("O=C(N[C@@H]1CNCC[C@H]1OC(=O)c1cc(O)c(C(=O)c2c(O)cccc2C(=O)O)c(O)c1)c1ccc(O)cc1")
7.10

====

Target: Protein kinase C beta type (Homo sapiens, UniProt P05771)
Assay: Inhibition of human Protein kinase C beta 2
Measurement Label: log10(IC50) (log10 of the value in nM)

>>> recorded_result("O=C(N[C@@H]1CNC[C@H]1OC(=O)c1cc(O)c(C(=O)c2c(O)cccc2C(=O)O)c(O)c1)c1ccc(O)cc1")
1.52
>>> recorded_result("O=C(N[C@@H]1CCC[C@H]1OC(=O)c1cc(O)c(C(=O)c2c(O)cccc2C(=O)O)c(O)c1)c1ccc(O)cc1")
1.70
>>> recorded_result("O=C(N[C@@H]1CNCCC[C@H]1OC(=O)c1cc(O)c(C(=O)c2c(O)cccc2C(=O)O)c(O)c1)c1ccc(O)cc1 (racemic)")
1.64
>>> recorded_result("O=C(N[C@@H]1CNCC[C@H]1OC(=O)c1cc(O)c(C(=O)c2c(O)cccc2C(=O)O)c(O)c1)c1ccc(O)cc1")
3.67
>>> recorded_result("O=C(N[C@@H]1CCCCC[C@H]1OC(=O)c1cc(O)c(C(=O)c2c(O)cccc2C(=O)O)c(O)c1)c1ccc(O)cc1")
2.63

====

Target chain: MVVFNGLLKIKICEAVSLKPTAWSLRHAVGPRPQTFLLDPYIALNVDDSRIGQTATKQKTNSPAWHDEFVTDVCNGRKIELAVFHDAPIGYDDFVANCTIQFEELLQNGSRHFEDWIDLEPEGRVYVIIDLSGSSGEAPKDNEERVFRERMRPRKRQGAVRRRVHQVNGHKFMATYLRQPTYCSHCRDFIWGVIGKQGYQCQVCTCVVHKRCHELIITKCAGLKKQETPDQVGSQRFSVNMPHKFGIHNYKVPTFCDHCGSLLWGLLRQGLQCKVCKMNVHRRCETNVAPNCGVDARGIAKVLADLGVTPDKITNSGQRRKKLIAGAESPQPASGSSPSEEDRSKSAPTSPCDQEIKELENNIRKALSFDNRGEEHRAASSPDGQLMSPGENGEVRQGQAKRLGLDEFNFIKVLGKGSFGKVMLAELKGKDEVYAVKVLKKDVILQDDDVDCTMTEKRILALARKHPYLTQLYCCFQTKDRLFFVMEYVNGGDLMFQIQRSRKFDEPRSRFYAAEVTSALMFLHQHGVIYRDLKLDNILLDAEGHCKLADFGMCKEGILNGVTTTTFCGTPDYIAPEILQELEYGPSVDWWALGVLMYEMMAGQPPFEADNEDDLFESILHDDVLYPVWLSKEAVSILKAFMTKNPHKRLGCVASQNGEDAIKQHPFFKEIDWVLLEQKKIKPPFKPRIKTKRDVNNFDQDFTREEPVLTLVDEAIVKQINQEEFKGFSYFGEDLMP
Measurement Label: IC50 (nM)

>>> recorded_result("O=C(N[C@@H]1CNC[C@H]1OC(=O)c1cc(O)c(C(=O)c2c(O)cccc2C(=O)O)c(O)c1)c1ccc(O)cc1")
10

====

Biological target: Protein kinase C alpha type (Homo sapiens)
Exam item: assign yes to entries whose IC50 is below 40 nM and no to entries at or above 40 nM. Note that a value of exactly 40 nM receives no.

>>> discrete_label("O=C(N[C@@H]1CNCCC[C@H]1OC(=O)c1cc(O)c(C(=O)c2c(O)cccc2C(=O)O)c(O)c1)c1ccc(O)cc1 (racemic) [BALANOL]")
"no"
>>> discrete_label("O=C(N[C@@H]1CCCCC[C@H]1OC(=O)c1cc(O)c(C(=O)c2c(O)cccc2C(=O)O)c(O)c1)c1ccc(O)cc1")
"no"
>>> discrete_label("O=C(N[C@@H]1CNC[C@H]1OC(=O)c1cc(O)c(C(=O)c2c(O)cccc2C(=O)O)c(O)c1)c1ccc(O)cc1")
"yes"
>>> discrete_label("O=C(N[C@@H]1CNCC[C@H]1OC(=O)c1cc(O)c(C(=O)c2c(O)cccc2C(=O)O)c(O)c1)c1ccc(O)cc1")
"no"

====

Target: Protein kinase C delta type (Homo sapiens, UniProt Q05655)
Sequence (Q05655 whole entry): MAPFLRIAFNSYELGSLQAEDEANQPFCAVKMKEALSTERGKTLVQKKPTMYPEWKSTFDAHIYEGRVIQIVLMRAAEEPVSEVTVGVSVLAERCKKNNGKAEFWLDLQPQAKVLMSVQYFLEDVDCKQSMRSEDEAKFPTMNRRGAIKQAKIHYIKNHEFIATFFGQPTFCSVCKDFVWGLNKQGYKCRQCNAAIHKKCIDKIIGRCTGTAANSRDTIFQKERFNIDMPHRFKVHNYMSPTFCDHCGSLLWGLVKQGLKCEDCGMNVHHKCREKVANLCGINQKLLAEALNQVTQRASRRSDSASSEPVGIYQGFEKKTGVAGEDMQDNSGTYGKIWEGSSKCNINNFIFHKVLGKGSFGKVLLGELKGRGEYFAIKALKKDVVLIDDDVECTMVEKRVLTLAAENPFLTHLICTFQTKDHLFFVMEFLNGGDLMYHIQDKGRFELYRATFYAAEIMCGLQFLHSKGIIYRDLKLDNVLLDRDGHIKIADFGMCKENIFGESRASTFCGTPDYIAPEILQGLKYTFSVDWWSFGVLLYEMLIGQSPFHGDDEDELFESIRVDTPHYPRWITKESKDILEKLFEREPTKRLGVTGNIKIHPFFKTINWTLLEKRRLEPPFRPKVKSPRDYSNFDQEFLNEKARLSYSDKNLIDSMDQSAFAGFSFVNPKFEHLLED
Assay: Inhibition of human Protein kinase C delta
pIC50: −log10 of the molar value.
pIC50 for assorted compounds
Measurement Label: pIC50

>>> recorded_result("O=C(N[C@@H]1CNCCC[C@H]1OC(=O)c1cc(O)c(C(=O)c2c(O)cccc2C(=O)O)c(O)c1)c1ccc(O)cc1 (racemic)")
7.49
>>> recorded_result("O=C(N[C@@H]1CNCC[C@H]1OC(=O)c1cc(O)c(C(=O)c2c(O)cccc2C(=O)O)c(O)c1)c1ccc(O)cc1")
7.30
>>> recorded_result("O=C(N[C@@H]1CCCCC[C@H]1OC(=O)c1cc(O)c(C(=O)c2c(O)cccc2C(=O)O)c(O)c1)c1ccc(O)cc1")
7.05
>>> recorded_result("O=C(N[C@@H]1CCC[C@H]1OC(=O)c1cc(O)c(C(=O)c2c(O)cccc2C(=O)O)c(O)c1)c1ccc(O)cc1")
9.05
>>> recorded_result("O=C(N[C@@H]1CNC[C@H]1OC(=O)c1cc(O)c(C(=O)c2c(O)cccc2C(=O)O)c(O)c1)c1ccc(O)cc1")
8.30
